Reported 100 nM Ag Bound values for the following binders.
- TARGET DESC: T1, Mouse IL2Rγ extracellular domain expressed with a C-terminal myc-myc-hexahistidine tag (mouse)
- T1 construct: whole entry is the tagged construct; also called mIL-2Rg-MMH
- T1 chain: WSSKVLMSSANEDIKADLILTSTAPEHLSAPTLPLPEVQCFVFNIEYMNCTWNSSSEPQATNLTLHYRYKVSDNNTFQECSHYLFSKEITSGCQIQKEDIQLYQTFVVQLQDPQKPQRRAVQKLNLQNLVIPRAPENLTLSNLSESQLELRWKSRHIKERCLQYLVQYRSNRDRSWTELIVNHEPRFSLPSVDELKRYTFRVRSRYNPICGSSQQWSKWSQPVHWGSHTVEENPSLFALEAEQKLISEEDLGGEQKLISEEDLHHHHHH
- PROTOCOL NOTES: SPR Biacore 4000, anti-hFc-captured mAb, 25 C
- Protocol: Equilibrium dissociation constants (KD values) for IL-2Rγ binding to purified anti-IL2Rγ monoclonal antibodies were determined using a Biacore 4000 instrument equipped with a real-time surface plasmon resonance biosensor. […] The dissociation of monoclonal antibody bound IL2Rγ reagents were monitored for 8-10 minutes in HBS-ET running buffer. […] Binding dissociation equilibrium constants (KD) and dissociative half-lives (t_{1/2}) were calculated from the kinetic rate constants as: […]
Give the number; RU is assumed, so skip it.

BINDER | PARAMETER MEASURED | OBSERVED VALUE
H4H12874P (antibody, human IgG4 S228P, kappa, V domains shown, fully human anti-IL2Rgamma mAb, human IgG4 Fc) VH: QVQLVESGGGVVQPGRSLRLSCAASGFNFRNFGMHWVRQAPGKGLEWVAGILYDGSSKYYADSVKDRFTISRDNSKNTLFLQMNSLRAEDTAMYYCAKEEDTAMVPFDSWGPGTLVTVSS VL: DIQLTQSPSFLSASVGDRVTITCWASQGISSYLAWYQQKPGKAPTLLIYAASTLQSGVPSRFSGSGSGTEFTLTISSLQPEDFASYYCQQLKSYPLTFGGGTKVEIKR | 100 nM Ag Bound | 1
H4H12886P (antibody, human IgG4 S228P, kappa, V domains shown, fully human anti-IL2Rgamma mAb, human IgG4 Fc) VH: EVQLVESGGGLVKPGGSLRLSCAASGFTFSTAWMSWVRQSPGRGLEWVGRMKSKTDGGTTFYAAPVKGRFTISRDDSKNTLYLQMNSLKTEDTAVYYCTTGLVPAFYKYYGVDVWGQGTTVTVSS VL: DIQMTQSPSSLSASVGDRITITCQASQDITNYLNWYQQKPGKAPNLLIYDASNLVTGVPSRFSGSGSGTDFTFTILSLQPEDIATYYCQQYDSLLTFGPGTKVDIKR | 100 nM Ag Bound | 2

Let us move to another entry and its 100 nM Ag Bound.
Given H4H12899P (antibody, human IgG4 S228P, kappa, V domains shown, fully human anti-IL2Rgamma mAb, human IgG4 Fc) VH: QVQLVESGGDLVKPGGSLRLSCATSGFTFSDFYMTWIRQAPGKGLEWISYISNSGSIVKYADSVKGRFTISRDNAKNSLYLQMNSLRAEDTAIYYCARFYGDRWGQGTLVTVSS VL: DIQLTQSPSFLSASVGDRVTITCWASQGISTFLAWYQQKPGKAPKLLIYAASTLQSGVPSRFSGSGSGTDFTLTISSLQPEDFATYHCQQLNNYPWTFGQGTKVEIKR , state its recorded 100 nM Ag Bound.
51
